molecular target: HLA-A*26:01; assay: IEDB peptide-MHC binding, purified MHC/competitive/radioactivity; filed as Kd, often an IC50 or EC50 that approximates it; bounds were set here for any values at or beyond the usual limits of such assays; conditions: source organism: Mammarenavirus machupoense
pKd: −log10 of the molar value.
reportedEndpoint: pKd

# input sequence: `HCALLDCIMY` ; wanted: its pKd
# output ≤ 4.16

* * *

biological target: HLA-B*18:01; experiment: IEDB peptide-MHC binding, purified MHC/competitive/fluorescence; filed as Kd, often an IC50 or EC50 that approximates it; bounds were set here for any values at or beyond the usual limits of such assays; conditions: source organism: Orthohantavirus negraense
reportedEndpoint: Kd

# input sequence: `RRFTQAIYD` ; wanted: its Kd
# output ≥ 20 µM
